# System: human liver microsomes, compound remaining, LC-MS
# method-notes: human microsomal compound turnover – biochemical, with and without NADPH, LC-MS, set 2, ADME assay (AID 624452);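 further: compound left measured after 60 min microsomal incubation at 37 °C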
# assay-setup: measured here: stability without NADPH control; at 1 µM
measured-property: percent remaining without NADPH (%)

compound="Cc1ccc(S(=O)(=O)C(c2ccccc2)c2c(C)noc2C)cc1 (configuration not stated)" experimental_target="human liver microsomes, compound remaining, LC-MS" measured_property="percent remaining without NADPH" unit_descriptor=% experimental_result=69.4
compound=O=C(c1ccccn1)N(Cc1cccs1)C1(C(=O)NC2CCCCC2)CCCCC1 experimental_target="human liver microsomes, compound remaining, LC-MS" measured_property="percent remaining without NADPH" unit_descriptor=% experimental_result=70.6
compound="COc1ccc(C2CC(c3ccccc3)=NN2c2ccc(S(N)(=O)=O)cc2)cc1 (configuration not stated)" experimental_target="human liver microsomes, compound remaining, LC-MS" measured_property="percent remaining without NADPH" unit_descriptor=% experimental_result=70
compound=CC(=O)c1ccc(N2CCN(S(=O)(=O)c3ccc4c(c3)CC(=O)N4)CC2)cc1 experimental_target="human liver microsomes, compound remaining, LC-MS" measured_property="percent remaining without NADPH" unit_descriptor=% experimental_result=69.8
compound=COc1ccc(CNCc2cccc3ccccc23)cc1 experimental_target="human liver microsomes, compound remaining, LC-MS" measured_property="percent remaining without NADPH" unit_descriptor=% experimental_result=70.7
compound="O=c1[nH]c2c(s1)C(c1cccnc1)C1C3CCC(C3)C1S2 (configuration not stated)" experimental_target="human liver microsomes, compound remaining, LC-MS" measured_property="percent remaining without NADPH" unit_descriptor=% experimental_result=71.9
compound=COc1ccccc1N(/N=C1\Sc2ccccc2C1=O)C(C)=O experimental_target="human liver microsomes, compound remaining, LC-MS" measured_property="percent remaining without NADPH" unit_descriptor=% experimental_result=68.5
compound=O=C(CCNS(=O)(=O)c1cccc2nsnc12)N1CCN(c2ccccn2)CC1 experimental_target="human liver microsomes, compound remaining, LC-MS" measured_property="percent remaining without NADPH" unit_descriptor=% experimental_result=71.8
compound=CCOc1ccc(-c2nc(-c3ccncc3)no2)cc1OCC experimental_target="human liver microsomes, compound remaining, LC-MS" measured_property="percent remaining without NADPH" unit_descriptor=% experimental_result=70.3
compound=COc1ccc(CSc2nc(C)cc(=O)[nH]2)cc1 experimental_target="human liver microsomes, compound remaining, LC-MS" measured_property="percent remaining without NADPH" unit_descriptor=% experimental_result=68.6
compound=O=C(O)c1ccccc1OCc1ccccc1Br experimental_target="human liver microsomes, compound remaining, LC-MS" measured_property="percent remaining without NADPH" unit_descriptor=% experimental_result=70
compound=CCCN1CNc2c(c(=O)[nH]c(=S)n2CCc2ccc(OC)c(OC)c2)C1 experimental_target="human liver microsomes, compound remaining, LC-MS" measured_property="percent remaining without NADPH" unit_descriptor=% experimental_result=65
compound=C=CCn1c(SCC(=O)c2ccc(O)c(O)c2)nnc1-c1ccccc1OC experimental_target="human liver microsomes, compound remaining, LC-MS" measured_property="percent remaining without NADPH" unit_descriptor=% experimental_result=65
compound=O=C1CCCC2=C1C1(CCCC1)N=C(Nc1nc3ccccc3o1)N2 experimental_target="human liver microsomes, compound remaining, LC-MS" measured_property="percent remaining without NADPH" unit_descriptor=% experimental_result=78.1
compound=COc1ccc(Sc2ccc(NC(=O)c3ccccc3Cl)cc2C#N)cc1 experimental_target="human liver microsomes, compound remaining, LC-MS" measured_property="percent remaining without NADPH" unit_descriptor=% experimental_result=64.4
compound=N#Cc1ccccc1CSc1nc2ncc(Br)cc2[nH]1 experimental_target="human liver microsomes, compound remaining, LC-MS" measured_property="percent remaining without NADPH" unit_descriptor=% experimental_result=79.3
compound=O=C(CSc1cccc2cccnc12)N1CCCC1 experimental_target="human liver microsomes, compound remaining, LC-MS" measured_property="percent remaining without NADPH" unit_descriptor=% experimental_result=78.5
compound="O=C1C2CC=CCC2C(=O)N1c1n[nH]c(-c2ccccc2)n1 (configuration not stated)" experimental_target="human liver microsomes, compound remaining, LC-MS" measured_property="percent remaining without NADPH" unit_descriptor=% experimental_result=71
compound=c1ccc(-c2nnc(N3CCOCC3)nc2-c2ccccc2)cc1 experimental_target="human liver microsomes, compound remaining, LC-MS" measured_property="percent remaining without NADPH" unit_descriptor=% experimental_result=79.8
compound=Cc1cc2c(s1)c1cnn(Cc3ccccc3F)c(=O)c1n2C experimental_target="human liver microsomes, compound remaining, LC-MS" measured_property="percent remaining without NADPH" unit_descriptor=% experimental_result=64.4
compound=CCCc1nc2c(=O)n(C)c(=O)nc-2n(C)n1 experimental_target="human liver microsomes, compound remaining, LC-MS" measured_property="percent remaining without NADPH" unit_descriptor=% experimental_result=61.5
compound="CCOC(=O)C(C)Oc1cccc2c(=O)n(CC(=O)Nc3ccc4c(c3)OCCO4)ccc12 (configuration not stated)" experimental_target="human liver microsomes, compound remaining, LC-MS" measured_property="percent remaining without NADPH" unit_descriptor=% experimental_result=75.6
compound=O=C(O)c1cccnc1SCCc1ccccc1 experimental_target="human liver microsomes, compound remaining, LC-MS" measured_property="percent remaining without NADPH" unit_descriptor=% experimental_result=74.9
compound=c1ccc(CC2CCN(c3ncnc4sccc34)CC2)cc1 experimental_target="human liver microsomes, compound remaining, LC-MS" measured_property="percent remaining without NADPH" unit_descriptor=% experimental_result=54.9
compound=O=[N+]([O-])c1ccc(CN2CCOCCOCCN(Cc3ccc([N+](=O)[O-])cc3)CCOCC2)cc1 experimental_target="human liver microsomes, compound remaining, LC-MS" measured_property="percent remaining without NADPH" unit_descriptor=% experimental_result=72.8
compound=NC(=O)C1CCN(c2nc(-c3ccc(Br)cc3)cs2)CC1 experimental_target="human liver microsomes, compound remaining, LC-MS" measured_property="percent remaining without NADPH" unit_descriptor=% experimental_result=62
compound=Cc1cc(C(=O)CN2C(=O)CCC2=O)c(C)n1Cc1ccccc1 experimental_target="human liver microsomes, compound remaining, LC-MS" measured_property="percent remaining without NADPH" unit_descriptor=% experimental_result=72.6
